# target or test system: human ileal/renal bile acid transporter (Homo sapiens, UniProt Q12908)
# Construct: were fused to make a single clone encoding the entire gene; expressed in transfected cells; host or cells: COS cells, transient DEAE-dextran transfection with pCMV5-HIBAT
# Sequence (Q12908 whole entry S171A, the tested form may be a part): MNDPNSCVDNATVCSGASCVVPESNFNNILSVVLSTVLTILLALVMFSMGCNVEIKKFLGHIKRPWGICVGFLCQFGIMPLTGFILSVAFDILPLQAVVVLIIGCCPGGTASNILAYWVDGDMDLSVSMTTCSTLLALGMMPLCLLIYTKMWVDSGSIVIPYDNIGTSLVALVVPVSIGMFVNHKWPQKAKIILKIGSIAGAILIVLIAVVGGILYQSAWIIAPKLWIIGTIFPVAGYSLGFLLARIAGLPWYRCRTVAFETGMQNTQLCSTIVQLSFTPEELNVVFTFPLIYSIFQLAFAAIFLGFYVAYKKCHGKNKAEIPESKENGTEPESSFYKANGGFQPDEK
# test: Cation specificity of taurocholate uptake in HIBAT-transfected COS cells
# Assay type: cell-based
# experimental conditions: 137 mM cation, 5 μM [^3 H]taurocholate, 15 min, 37° C., mean±SD of triplicate
endpoint label: Taurocholate Uptake (pmol/min/mg)
Report only the number, with the unit pmol/min/mg understood.

[Na+] [Sodium]
9.2
[K+] [Potassium]
0.3
[Cs+] [Cesium]
0.2
[Li] [Lithium]
0.3

// query For the record [Rb] [Rubidium] , what value of Taurocholate Uptake is listed for human ileal/renal bile acid transporter (Homo sapiens, UniProt Q12908)?
// result 0.3

====

# target or test system: human ileal/renal bile acid transporter (Homo sapiens, UniProt Q12908, S171A)
# Sequence (Q12908 whole entry S171A): as the sequence (Q12908 whole entry S171A, the tested form may be a part) above
# test: Cation specificity of taurocholate uptake in HIBAT-transfected COS cells
# Format: cell-based
# Set-up: were fused to make a single clone encoding the entire gene; expressed in transfected cells; host or cells: COS cells, transient DEAE-dextran transfection with pCMV5-HIBAT
# experimental conditions: control = uptake in the presence of sodium; 15 min, 137000 µM
We begin with a simple list: items and their reported Taurocholate Uptake, percentage of control.
Numbers only here, please. The scale is %.

[Cs+]
2

// query Could you share which Taurocholate Uptake, percentage of control value was measured for [K+] ?
// result 3

// query Check [Na+] [Sodium] too.
// result 100

// query // query: [Rb]
// result 3
